Each entry below carries its recorded IC50.
biological target: GST-tagged K-Ras mutant / His-tagged hSOS1 (Homo sapiens); test: HTRF assay, K-Ras mutant / SOS1 interaction; assay type: binding; details: compound nos. 401-703; read-out: IC50 against mutant Kras

Q: Which measured IC50 value corresponds to COc1nc2c(N3CC4CCC(C3)N4)nc(OCC34CCCN3CCC4)nc2cc1-c1cccc2cccc(Cl)c12 ?
Ans: > 500 nM

* * *

molecular target: GST-tagged K-Ras mutant / His-tagged hSOS1 (Homo sapiens, UniProt P01116); test: HTRF assay, K-Ras mutant / SOS1 interaction; type: binding; settings: compound nos. 401-703; read-out: IC50 against mutant Kras
Sequence (P01116 whole entry G12D, form open): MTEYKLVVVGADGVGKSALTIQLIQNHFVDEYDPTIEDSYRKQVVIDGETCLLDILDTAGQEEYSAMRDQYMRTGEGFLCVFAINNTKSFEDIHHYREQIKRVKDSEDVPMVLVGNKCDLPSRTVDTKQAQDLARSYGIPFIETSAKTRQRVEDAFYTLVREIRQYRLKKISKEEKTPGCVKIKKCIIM
metric-name: IC50

Q: Which measured IC50 value corresponds to CN1CCC[C@H]1COc1nc(N2CCCC(C(=O)O)CC2)c2cc(Cl)c(-c3cccc4sc(N)nc34)c(F)c2n1 (stereo partly shown) [Compound 414] ?
Ans: > 500 nM

Q: Which measured IC50 value corresponds to Nc1cc(-c2ccc3c(N4CC5CCC(C4)N5)nc(OCC45CCCN4CCC5)nc3c2F)c2c(Cl)cccc2n1 [Compound 498] ?
Ans: > 500 nM

Q: Which measured IC50 value corresponds to Fc1c(-c2cccc3cn[nH]c23)ccc2c(N3CC4CCC(C3)N4)nc(OC[C@@]34CCCN3C[C@H](F)C4)nc12 [Compound 657] ?
Ans: > 500 nM

Q: Which measured IC50 value corresponds to COC1CCCCN(c2nc(OC[C@@H]3CCCN3C)nc3c(F)c(-c4cccc5sc(N)nc45)c(Cl)cc23)C1 (stereo partly shown) [Compound 524] ?
Ans: < 500 nM

Q: Which measured IC50 value corresponds to Cc1cc2[nH]ncc2c(-c2c(Cl)cc3c(N4CC5CCC(C4)N5)nc(OC[C@@]45CCCN4C[C@H](F)C5)nc3c2F)c1Cl [Compound 425] ?
Ans: > 500 nM

Q: Which measured IC50 value corresponds to Fc1c(Br)ccc2c(N3CC4CCC(C3)N4)nc(OC[C@@]34CCCN3C[C@H](F)C4)nc12 [Compound 537] ?
Ans: > 500 nM

Q: Which measured IC50 value corresponds to Nc1cc(-c2c(Cl)cc3c(N4CC5CCC(C4)N5)nc(OCC45CCCN4CCC5)nc3c2F)ccc1F [Compound 627] ?
Ans: > 500 nM

Q: Which measured IC50 value corresponds to Oc1cc(-c2c(Cl)cc3c(N4CC5CCC(C4)N5)nc(OCC45CCCC4CCC5)nc3c2F)c2ccccc2c1 (stereo not shown) [Compound 410] ?
Ans: > 500 nM

Q: Which measured IC50 value corresponds to Cc1ccc2cn[nH]c2c1-c1c(Cl)cc2c(N3CC4CCC(C3)N4)nc(OC[C@@]34CCCN3C[C@H](F)C4)nc2c1F [Compound 611] ?
Ans: > 500 nM

Q: Which measured IC50 value corresponds to N#CC1CCCN(c2nc(OC[C@@]34CCCN3C[C@H](F)C4)nc3c(F)c(-c4ccc(F)c5sc(N)nc45)c(Cl)cc23)CC1 (stereo partly shown) [Compound 433] ?
Ans: < 500 nM

Q: Which measured IC50 value corresponds to CN(C)C/C=C/C(=O)N1CC2(CCCN(c3nc(OC[C@@]45CCCN4C[C@H](F)C5)nc4c(F)c(-c5ccc(F)c6sc(N)c(C#N)c56)c(Cl)cc34)C2)C1 [Compound 522] ?
Ans: < 500 nM

Q: Which measured IC50 value corresponds to Fc1c(-c2cccc3sccc23)c(Cl)cc2c(N3CC4CCC(C3)N4)nc(OC[C@@]34CCCN3C[C@H](F)C4)nc12 [Compound 579] ?
Ans: > 500 nM

Q: Which measured IC50 value corresponds to CN1CCC[C@H]1COc1nc(N2CCCCC(N)C2)c2cc(Cl)c(-c3cccc4sc(N)nc34)c(F)c2n1 (stereo partly shown) [Compound 672] ?
Ans: < 500 nM
